# System: UACC-62
# assay notes: NCI tumour cell line growth inhibition, 48 h
Active and inactive are the calls of the source. No stated cut-off is given here; in the data, active = GI50 up to about 1.1 µM and inactive = higher.
value type: GI50

Known GI50 results, listed for orientation:
CC(C)C[C@H](NC(=O)[C@@H](N)Cc1cccc2ccccc12)B(O)O ... 0.0482 µM (active)
CC1(C)C(=O)/C=C\C(=O)C(C)(C)C2=CC=C(O2)C(C)(C)C(=O)C(Br)C(Br)C(=O)C(C)(C)C2=CC=C1O2 (stereo not given) ... 24 µM (inactive)
Nc1nc(SCC(=O)c2ccc(Br)cc2)c2nc[nH]c2n1 ... 37.7 µM (inactive)
O=C(CCCN1CCc2[nH]c3cc(F)ccc3c2C1)c1ccc(F)cc1 ... 12.7 µM (inactive)

Next item in the queue.
Which GI50 is listed for O=C1C(=CNC(=S)c2ccccc2)C(=O)c2ccccc21 ?
28.8 µM (inactive)

###

# Tested on: MDA-MB-435
# assay notes: NCI tumour cell line growth inhibition, 48 h
Activity calls are given as the source filed them. Cut-off read from the data, not from the text of the source: active = GI50 up to about 1.1 µM and inactive = higher. Starred links: 1 amine or outer side, 2 acyl side, 3 side chain; linkers in the order of their positions; H or OH if unused. Positions of bridges follow the written chain, without caps; N, C: chain ends. Non-standard residues stand in square brackets, D forms with d. Residues, ends and D or L forms follow the SMILES beside them. ξ: configuration not given here. *: point of attachment. γ4hArg(2R,3R-(OH)2) = N=C(N)NCCC[C@H](N[*:1])[C@@H](O)[C@@H](O)C(=O)[*:2]; Gln(3S,4R-Me2) = C[C@H]([C@H](N)C(=O)O)[C@@H](C)C(N)=O; X50 = CC(C)C[C@H](C)[C@@H](O)[C@@H](C)C(=O)*; X51 = COC(c1ccc(O)cc1)C(N[*:1])C(=O)[*:2]; NMeQ = CN[C@@H](CCC(N)=O)C(=O)O; Thr(3ξ) = CC(O)[C@H](N)C(=O)O; NMeA = CN[C@@H](C)C(=O)O
Your answer must be one of the following: T (active), F (inactive)

Example entries and their recorded answers appear below.
CC(=O)O[C@@H](c1nccn1Cc1ccccc1)[C@H]1OC(C)(C)O[C@@H]1[C@H]1COC(C)(C)O1 ... F
CSC(=N/N=C(\C)c1ccc(S(=O)(=O)N(C)c2ccccc2)cc1)SC ... F
Brc1ccc2[nH]cc(-c3csc(-c4ccccn4)n3)c2c1 ... F
COC(c1ccc(O)cc1)C1NC(=O)[C@H](CCC(N)=O)N(C)C(=O)[C@H](CC(C)C)NC(=O)[C@@H](CCCN=C(N)N)NC(=O)[C@H](C(C)O)NC(=O)[C@@H](NC(=O)[C@@H](NC(=O)[C@H](O)[C@H](O)[C@H](CCCN=C(N)N)NC(=O)[C@H](C)NC(=O)[C@H](C)[C@H](O)[C@@H](C)CC(C)C)[C@@H](C)[C@@H](C)C(N)=O)[C@@H](C)OC(=O)[C@H](C)N(C)C1=O (stereo partly drawn) (X50-A[γ4hArg(2R,3R-(OH)2)][Gln(3S,4R-Me2)]T[Thr(3ξ)][dR]L[NMeQ][X51][NMeA]; ester 4-C) ... T

Please state the recorded outcome for this molecule: O=C(O)c1cc2ccccc2c(Cc2c(O)c(C(=O)O)cc3ccccc23)c1O
F

Please state the recorded outcome for this molecule: COC(=O)c1ccc(NCc2c(O)ccc(O)c2Br)cc1Cl
F

Please state the recorded outcome for this molecule: CCOC(=O)/C(C(=S)NCc1ccccc1)=C(/N)N1CCCC1
F

Please state the recorded outcome for this molecule: Oc1ncc(N(CCCl)CCCl)c(O)n1
F

Please state the recorded outcome for this molecule: CC(C)(C)OC(=O)N(O)[C@@H]1CC[C@H](n2cnc3c(N)ncnc32)C1
F

###

# Tested on: MDA-MB-231
# assay notes: NCI tumour cell line growth inhibition, 48 h
Active and inactive are the calls of the source. Cut-off read from the data, not from the text of the source: active = GI50 up to about 1.1 µM and inactive = higher.
Here, each record is paired with measured GI50 data.

Known GI50 results, listed for orientation:
O=C(CNC(c1ccccc1)(c1ccccc1)c1ccccc1)NC1CCCCC1NC(=O)CNC(c1ccccc1)(c1ccccc1)c1ccccc1 (stereo unspecified) ... > 100 µM (inactive)
C=C1C(=O)OC2/C=C(\C)CC/C=C(/C)CC(OC(=O)/C(=C/CO)CO)C12 (stereo unspecified) ... > 10 µM (inactive)
Cc1cc(NC[C@H](O)[C@H](O)[C@H](O)CO)c(Sc2cc(=O)[nH]c(=O)[nH]2)cc1C ... > 62.5 µM (inactive)
COc1ccc2c(c1[N+](=O)[O-])CC[C@@H]1[C@@H]2CC[C@]2(C)C(=O)CC[C@@H]12 ... > 25 µM (inactive)
CCOC(=O)c1c(C)n(Cc2ccccc2)c2c1cc(O)c1[nH]c3c(c12)CCCC3 ... 5.35 µM (inactive)

Which GI50 is listed for C/C=C/C=C/C1=NN(c2cccc(S(=O)(=O)O)c2)C2(C1)SCC(=O)N2c1nc2ccccc2s1 (stereo unspecified) ?
56.2 µM (inactive)

Which GI50 is listed for CC1(CCc2ccccc2)CC1(Br)Br (stereo unspecified) ?
73.1 µM (inactive)

Which GI50 is listed for COC(=O)C(CCC(=O)CCl)N1C(=O)c2ccccc2C1=O (stereo unspecified) ?
12.6 µM (inactive)

Which GI50 is listed for CCOC(=O)c1cn2c(n1)sc1cccc(C)c12 ?
> 100 µM (inactive)

###

Here, each record is paired with measured GI50 data.
# System: M19-MEL
# assay notes: NCI tumour cell line growth inhibition, 48 h
Calls of active or inactive are those of the source. Cut-off read from the data, not from the text of the source: active = GI50 up to about 1.1 µM and inactive = higher.

Known GI50 results, listed for orientation:
CC(CC(=O)N1C(=O)C(C)(C)[C@@H](O)[C@H]1CC(C)C(Cl)(Cl)Cl)C(Cl)(Cl)Cl (stereo not given in full) ... > 100 µM (inactive)
C=CCNC(=O)ON1C(=O)CCC1=O ... > 100 µM (inactive)
O=C(c1ccccc1)[C@@H]1C[C@H](Sc2ccccc2)c2cc(Cl)ccc2N1 ... 30.1 µM (inactive)
CCOC(=O)C1CCCCN1C(=O)OCc1ccccc1 (stereo not given) ... > 100 µM (inactive)
CC(O)c1ccc(C(O)/C(=N\NC(=O)c2ccncc2)c2nc3ccc([N+](=O)[O-])cc3nc2O)cc1 (stereo not given) ... > 100 µM (inactive)
CC(C)c1ccc(C2NC(S)=NC3=C2c2ccccc2C3=O)cc1 (stereo not given) ... 38.9 µM (inactive)
C1CCNCC1.S=C(S)N1CCCCC1 ... 0.685 µM (active)
CC(=O)NC(CCCCNC(=O)OCc1ccccc1)C(=O)NCc1ccccc1 (stereo not given) ... > 100 µM (inactive)
CC(C)(C)c1ccc2c(c1)S(=O)(=O)Nc1ccccc1NS(=O)(=O)c1cc(C(C)(C)C)ccc1OCCOCCOCCO2 ... > 100 µM (inactive)
CC(=O)Nc1ccc(-c2nnc(SCC(=O)Nc3ccc([N+](=O)[O-])cc3)o2)cc1 ... 13.5 µM (inactive)

Which GI50 is listed for O=C(Nc1ccc([N+](=O)[O-])cc1[N+](=O)[O-])C(=O)C(C(=O)c1ccc2ccccc2c1)C1OC(=O)c2ccccc21 (stereo not given) ?
12.2 µM (inactive)

Which GI50 is listed for CCc1cccc(C)c1N1C(=O)C(=O)C(c2nc3ccccc3o2)/C(=N/NC(=S)NN)C1=O (stereo not given) ?
> 100 µM (inactive)

Which GI50 is listed for Nc1ncnc2c1ncn2CCOC(c1ccccc1)P(=O)(O)O (stereo not given) ?
> 100 µM (inactive)

Which GI50 is listed for CC(C)C(/C=C/c1ccc(Br)cc1)=N\NC(N)=O ?
12.2 µM (inactive)

Which GI50 is listed for C=C1CC(OC)(C(O)C(=O)N[C@H]2OCO[C@H]3C2O[C@H](C[C@@H](CO)OC)C(C)(C)C3OC)O[C@H](C)[C@@H]1C (stereo not given in full) ?
< 0.00931 µM (active)

###

# System: SK-OV-3
# assay notes: NCI tumour cell line growth inhibition, 48 h
Activity calls are given as the source filed them. Cut-off read from the data, not from the text of the source: active = GI50 up to about 1.1 µM and inactive = higher.
Your answer must be one of the following: active, inactive

Example entries and their recorded answers appear below.
Nc1nnnn1CCO ... inactive
CC(=O)c1c(N=[N+]=[N-])c2cccc3c2n(c1=O)CCC3 ... inactive

Please state the recorded outcome for this compound: O=C(Nc1ccc(F)cc1)c1cc2ccc(O)cc2o/c1=N\c1ccccc1F
inactive

Please state the recorded outcome for this compound: COc1ccc2c(c1C)C(=O)C(O)(CC=C(C)C)O2 (configuration not stated)
inactive

Please state the recorded outcome for this compound: CCOC(=O)CN1C(=O)c2cc([N+](=O)[O-])cc3cc([N+](=O)[O-])cc(c23)C1=O
inactive

Please state the recorded outcome for this compound: Cc1cc(S(=O)(=O)Nc2nc(N)nc(N(C)C)n2)c(S)cc1Cl
inactive

Please state the recorded outcome for this compound: C#CCOCn1cnc2c(Cl)ncnc21
inactive

###

# System: SK-MEL-28
# assay notes: NCI tumour cell line growth inhibition, 48 h
Activity calls are given as the source filed them. No stated cut-off is given here; in the data, active = GI50 up to about 1.1 µM and inactive = higher. Starred links: 1 amine or outer side, 2 acyl side, 3 side chain; linkers in the order of their positions; H or OH if unused. Positions of bridges follow the written chain, without caps; N, C: chain ends. Non-standard residues stand in square brackets, D forms with d. Residues, ends and D or L forms follow the SMILES beside them. ξ: configuration not given here. *: point of attachment. γ4hArg(2R,3R-(OH)2) = N=C(N)NCCC[C@H](N[*:1])[C@@H](O)[C@@H](O)C(=O)[*:2]; Gln(3S,4R-Me2) = C[C@H]([C@H](N)C(=O)O)[C@@H](C)C(N)=O; X50 = CC(C)C[C@H](C)[C@@H](O)[C@@H](C)C(=O)*; X51 = COC(c1ccc(O)cc1)C(N[*:1])C(=O)[*:2]; NMeQ = CN[C@@H](CCC(N)=O)C(=O)O; Thr(3ξ) = CC(O)[C@H](N)C(=O)O; NMeA = CN[C@@H](C)C(=O)O
Your answer must be one of the following: yes for active, no for inactive

O=C(Nc1ccc([N+](=O)[O-])cc1[N+](=O)[O-])C(=O)C(C(=O)c1ccc2ccccc2c1)C1OC(=O)c2ccccc21 (centres undefined) ... no
CN(c1ccccc1)c1c(-c2ccccc2)c(=O)oc2c1ccc1occc12 ... no
COC(c1ccc(O)cc1)C1NC(=O)[C@H](CCC(N)=O)N(C)C(=O)[C@H](CC(C)C)NC(=O)[C@@H](CCCN=C(N)N)NC(=O)[C@H](C(C)O)NC(=O)[C@@H](NC(=O)[C@@H](NC(=O)[C@H](O)[C@H](O)[C@H](CCCN=C(N)N)NC(=O)[C@H](C)NC(=O)[C@H](C)[C@H](O)[C@@H](C)CC(C)C)[C@@H](C)[C@@H](C)C(N)=O)[C@@H](C)OC(=O)[C@H](C)N(C)C1=O (stereo partly drawn) (X50-A[γ4hArg(2R,3R-(OH)2)][Gln(3S,4R-Me2)]T[Thr(3ξ)][dR]L[NMeQ][X51][NMeA]; ester 4-C) ... yes

--- query ---
Please state the recorded outcome for this compound: CCOP(=O)(OCC)C(Nc1ccc(F)cc1)c1ccccc1 (centres undefined)
no
